# Tested on: Tov-21-G
# test-details: Primary qHTS to identify gynecologic anti-cancer compounds using libraries of approved drugs and bioactive compounds (AID 1345084); also: % is scaled to controls: 0 for no effect and ±100 for the full control effect; nearly all actives have a fitted effect of over 55% in size
# assay-setup: Gynecologic cancer cell panel viability, ATPlite luminescence, 48 h; series mostly up to 57.5 µM
# Description: National Center for Advancing Translational Sciences [NCATS] Assay Overview: Chemotherapeutic drug responses vary from cancer to cancer and from patient to patient. […] ATPlite is a luminescence based assay reliant on the conversion of a luciferase substrate to light in the presence of ATP. As a cytotoxic compound will suppress growth and decrease the number of cells, the concentration of ATP will decrease, and less light signal will be detected in the well. […]
Results filed as inconclusive are left out. Active and inactive are the calls of the source. Calls follow the shape of the dose curve; as a rule, active = well fitted cell-killing curve with a large enough effect; inconclusive = small, poorly fitted or top-dose-only effect, or effect the other way; inactive = flat fitted curve, though single readings scatter.

{"compound": "C=C1CCC2C(C)(C(=O)OC)CCCC2(C)C1CCC1=CCOC1=O (configuration not stated)", "activity change, negative = cytotoxicity": "inactive"}
{"compound": "COC1CC(O[C@H]2CC[C@@]3(C)C(=CC[C@]4(O)C3[C@H](O)[C@@H](O)[C@]3(C)[C@@H]([C@H](C)O)CC[C@@]34O)C2)OC(C)C1OC1CC(OC)C(OC2CC(OC)C(OC3OC(C)C(OC4OC(CO)C(O)C(O)C4O)C(OC)C3O)C(C)O2)C(C)O1 (some centres not stated)", "activity change, negative = cytotoxicity": "-0.0649% [at 11.6 µM] (inactive)"}
{"compound": "Cc1ccccc1-c1cc(N2CCN(C)CC2)ncc1N(C)C(=O)C(C)(C)c1cc(C(F)(F)F)cc(C(F)(F)F)c1", "activity change, negative = cytotoxicity": "inactive"}
{"compound": "C/C(=C\\CO)CC/C=C(\\C)C(=O)O[C@@H]1O[C@H](CO)[C@@H](O)[C@H](O)[C@H]1O", "activity change, negative = cytotoxicity": "inactive"}
{"compound": "CC(=O)/C=C/[C@H]1[C@](C)(O)[C@@H](O)[C@H](O)C2C(C)(C)CCC[C@@]21C (some centres not stated)", "activity change, negative = cytotoxicity": "inactive"}
{"compound": "CC1(C)CC2C3=CCC4[C@@]5(C)CC[C@H](OC6OCC(O)C(OC7OC(CO)C(O)C(O)C7O)C6O)C(C)(C)C5CC[C@@]4(C)[C@]3(C)C[C@H](O)[C@@]2(CO)[C@H](OC(=O)c2ccccc2)C1 (some centres not stated)", "activity change, negative = cytotoxicity": "6.98% [at 11.6 µM] (inactive)"}
{"compound": "C=C(C(=O)O)[C@H]1C[C@]2(C)C(=O)CC[C@]23O[C@H]1C[C@@H]3C", "activity change, negative = cytotoxicity": "inactive"}
